assayed system: S. aureus Alpha hemolysin (Staphylococcus aureus)
Sequence (P09616 27-319 limits assumed): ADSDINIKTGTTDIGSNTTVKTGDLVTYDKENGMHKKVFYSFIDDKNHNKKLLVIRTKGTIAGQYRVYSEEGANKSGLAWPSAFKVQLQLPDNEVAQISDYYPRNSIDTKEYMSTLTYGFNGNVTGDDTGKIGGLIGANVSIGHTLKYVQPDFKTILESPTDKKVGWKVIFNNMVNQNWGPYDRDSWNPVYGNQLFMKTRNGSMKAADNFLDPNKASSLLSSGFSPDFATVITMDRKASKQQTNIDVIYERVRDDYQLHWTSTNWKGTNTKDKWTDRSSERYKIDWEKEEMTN
experiment: cell-based
settings: A549-LDH Assay activity
pEC50: −log10 of the molar value.
value kind: pEC50

Request: Look up pEC50: O=c1[nH]c2cc(C(F)F)c(S(=O)(=O)Nc3ccc(OC(F)(F)F)cc3)cc2[nH]c1=O
Response: 6.00 to 7.00

Request: Next record, please: O=c1[nH]c2cc(F)c(S(=O)(=O)Nc3ccc(-c4ccc5c(c4)NCC5)c(Cl)c3)cc2[nH]c1=O
Response: 6.00 to 7.00

Request: Next record, please: C#Cc1cc(NS(=O)(=O)c2cc3[nH]c(=O)c(=O)[nH]c3cc2C)ccc1-c1ccccc1
Response: 7.00 to 7.52

Request: Next record, please: O=c1[nH]c2cc(F)c(S(=O)(=O)Nc3ccc(-c4ccncc4)c(Cl)c3)cc2[nH]c1=O
Response: 6.00 to 7.00

Request: Next record, please: CCc1ccccc1-c1ccc(NS(=O)(=O)c2cc3[nH]c(=O)c(=O)[nH]c3cc2C)cc1
Response: 6.00 to 7.00

Request: Next record, please: Cc1ccc(-c2ccc(NS(=O)(=O)c3cc4[nH]c(=O)c(=O)[nH]c4cc3C)cc2Cl)s1
Response: 6.00 to 7.00

Request: Next record, please: Cc1cc2[nH]c(=O)c(=O)[nH]c2cc1S(=O)(=O)Nc1ccc(-c2c(F)cccc2F)c(Cl)c1
Response: 7.00 to 7.52

----------
EC50 values for the molecules below.
assayed system: S. aureus Alpha hemolysin (Staphylococcus aureus)
experiment: cell-based
settings: A549-LDH Assay activity

Sample records with EC50:
query smiles	result
Cc1cc2[nH]c(=O)c(=O)[nH]c2cc1S(=O)(=O)Nc1ccc(-c2ccc(C(F)(F)F)cc2)c(Cl)c1	1000 to 6000 nM
O=c1[nH]c2cc(NCCO)c(S(=O)(=O)Nc3ccc(OC(F)(F)F)cc3)cc2[nH]c1=O	< 30 nM
CCCc1ccc(NS(=O)(=O)c2cc3[nH]c(=O)c(=O)[nH]c3cc2Cl)cc1	30 to 100 nM

Request: Request body: readout EC50, system S. aureus Alpha hemolysin (Staphylococcus aureus), query Cc1cc2[nH]c(=O)c(=O)[nH]c2cc1S(=O)(=O)Nc1ccc(-c2cccc(OCCN(C)C)c2)c(Cl)c1 . Return the value.
Response: 100 to 1000 nM

----------
assayed system: hemolysin alpha from Staphylococcus aureus (Staphylococcus aureus)
experiment: cell-based
pEC50: −log10 of the molar value.
pEC50 values for the compounds below.

compound	pEC50
Cc1cc2[nH]c(=O)c(=O)[nH]c2cc1S(=O)(=O)Nc1ccc(-c2ccc(C(F)(F)F)cc2)c(Cl)c1	6.00 to 7.00
Cc1cc2[nH]c(=O)c(=O)[nH]c2cc1S(=O)(=O)Nc1ccc(C2CCC2)cc1	6.00 to 7.00
Cc1cc2[nH]c(=O)c(=O)[nH]c2cc1S(=O)(=O)Nc1nc2ccccc2s1	6.00 to 7.00
C#Cc1ccc(-c2ccc(NS(=O)(=O)c3cc4[nH]c(=O)c(=O)[nH]c4cc3C)cc2C#C)cc1	> 7.52
Cc1cc2[nH]c(=O)c(=O)[nH]c2cc1S(=O)(=O)Nc1cnc(-c2ccc(C#N)cc2)c(Cl)c1	6.00 to 7.00
Cc1cc2[nH]c(=O)c(=O)[nH]c2cc1S(=O)(=O)Nc1ccc(-c2ccc3[nH]ccc3c2)c(Cl)c1	6.00 to 7.00
Cc1cc2[nH]c(=O)c(=O)[nH]c2cc1S(=O)(=O)Nc1ccc(Cc2ccccc2)c(Cl)c1	6.00 to 7.00
Cc1cc2[nH]c(=O)c(=O)[nH]c2cc1S(=O)(=O)Nc1ccc2c(ccn2C)c1	5.46 to 6.00
Cc1cc2[nH]c(=O)c(=O)[nH]c2cc1S(=O)(=O)Nc1cnc(-c2ccc(F)cc2)c(Cl)c1	7.00 to 7.52
C#Cc1cc(NS(=O)(=O)c2cc3[nH]c(=O)c(=O)[nH]c3cc2C)ccc1-c1ccc(OC)c(F)c1	> 7.52

Request: Look up pEC50: Cc1cc2[nH]c(=O)c(=O)[nH]c2cc1S(=O)(=O)Nc1ccc(C2=CCOCC2)cc1
Response: 6.00 to 7.00

Request: Next record, please: Cc1cc2[nH]c(=O)c(=O)[nH]c2cc1S(=O)(=O)Nc1ccc(-c2csc(C#N)c2)c(Cl)c1
Response: > 7.52

Request: Next record, please: Cc1cc2[nH]c(=O)c(=O)[nH]c2cc1S(=O)(=O)Nc1ccc(C2CC2)cc1 [drawing 470 (R^2 = CH3)]
Response: 7.20

Request: Next record, please: Cc1cc2[nH]c(=O)c(=O)[nH]c2cc1S(=O)(=O)Nc1ccc(OC(F)(F)F)nc1
Response: 6.00 to 7.00

Request: Next record, please: C#Cc1cc(NS(=O)(=O)c2cc3[nH]c(=O)c(=O)[nH]c3cc2C)ccc1-c1ccc2oc(C)nc2c1
Response: > 7.52
